Here the recorded pKi is given for each entry.
Biological target: purified sigma-1 receptor (Cavia porcellus)
Construct: made in house; host or cells: E. coli BL21 DE3
Experiment: Competitive displacement of [3H]-(+)-pentazocine at the pure sigma-1 receptor
Type: binding, guinea pig
Conditions: [3H]-(+)-pentazocine, read-out: Ki Pure σ-1R
Description: A guinea pig sigma-1 receptor was purified as previously described (Ramachandran et al., Protein Expr. Purif., 2007. 51(2): 283-92). The pMal P2X plasmid (New England Biolabs) encoding the guinea pig sigma-1 receptor on the C-terminus of the E. coli Maltose Binding Protein was used for purification. […] The MBP-sigma-1-receptor fusion protein was cleaved with Factor Xa protease (Novagen) at room temperature for 24-48 hours and the cleavage was monitored with SDS-polyacrylamide gel electrophoresis. […]
pKi: −log10 of the molar value.
READOUT_KIND: pKi

                            compound_string  readout_kind  test_value
0                       CCCCCCCNCCCc1ccccc1           pKi        7.74
1            CCCCNCCCc1ccc([N+](=O)[O-])cc1           pKi        7.70
2    CCCCCCCCCCCCNCCCc1ccc([N+](=O)[O-])cc1           pKi        7.50
3                          CCCCNCCCc1ccccc1           pKi        6.69
4  CCCCCCCCCCCCCCCCCCNCCCc1ccc([N+](=O)[O-])cc1           pKi        7.38
5                  CCCCCCCCCCCCNCCCc1ccccc1           pKi        7.20
6         CCCCCCCNCCCc1ccc([N+](=O)[O-])cc1           pKi        8.12
7            CCCCCCCCCCCCCCCCCCNCCCc1ccccc1           pKi        7.37

###

target: UniProtKB Q60492; test: Affinity for the sigma-1 receptor (Table 3); format: binding; set-up: from tissue
Here the recorded Kd is given for each entry.
READOUT_KIND: Kd (nM)

>>> print(df.to_string())
                                   compound  readout_kind  test_value
0  CN(C)CCc1c[nH]c2ccccc12 [DMT, 2-(1H-indol-3-yl)-N,N-dimethylethylamine]            Kd       14600
1                   CCCNCCc1ccc(F)cc1 [HD7]            Kd          91
2  CCCN(CCC)CCc1c[nH]c2ccccc12 [DPT, reference compound]            Kd        1600

###

Here the recorded Ki is given for each entry.
Target: purified sigma-1 receptor (Cavia porcellus, UniProt Q60492)
Construct: made in house; host or cells: E. coli BL21 DE3
Sequence (Q60492 whole entry): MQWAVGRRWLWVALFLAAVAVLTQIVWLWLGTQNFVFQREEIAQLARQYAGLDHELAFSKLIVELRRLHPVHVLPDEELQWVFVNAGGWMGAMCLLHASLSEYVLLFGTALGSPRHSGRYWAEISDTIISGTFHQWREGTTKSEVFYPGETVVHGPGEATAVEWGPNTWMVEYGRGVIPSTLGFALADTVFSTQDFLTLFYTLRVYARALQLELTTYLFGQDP
Experiment: Competitive displacement of [3H]-(+)-pentazocine at the pure sigma-1 receptor
Format: binding, guinea pig
Conditions: [3H]-(+)-pentazocine 10 nM, read-out: Ki Pure σ-1R
Procedure: A guinea pig sigma-1 receptor was purified as previously described (Ramachandran et al., Protein Expr. Purif., 2007. 51(2): 283-92). The pMal P2X plasmid (New England Biolabs) encoding the guinea pig sigma-1 receptor on the C-terminus of the E. coli Maltose Binding Protein was used for purification. […] The MBP-sigma-1-receptor fusion protein was cleaved with Factor Xa protease (Novagen) at room temperature for 24-48 hours and the cleavage was monitored with SDS-polyacrylamide gel electrophoresis. […]
READOUT_KIND: Ki (µM)

                                 compound  test_value
0                      CCCCCN [Amylamine]         167
1  CCCCN [Butylamine, reference compound]         477
